Experiment: Induction of anti-CD3/CD28 antibodies-stimulated human T cell activation at 0.3 uM assessed fold increase in CD25 expression measured by ELISA assay
Type: functional, T cell line
EXPERIMENTAL_ENDPOINT: fold change (FC)

C[C@H](Sc1nncn1C)c1ccnc(N2Cc3c(cccc3C(F)(F)F)C2=O)c1 :: <=1
C[C@H](Sc1nncn1C)c1cccc(NC(=O)c2cc(C(F)(F)F)cc(C(F)(F)F)n2)c1 :: <=1

###

Assay: Induction of anti-CD3 antibodies-stimulated human T cell activation at 1 uM assessed fold increase in IL-2 secretion measured by ELISA assay; also: reference of the scale not given here
Type: functional, T cell line
EXPERIMENTAL_ENDPOINT: fold change (FC)

These solved cases illustrate the format of a correct answer.
Cn1cnnc1CC1(c2cccc(N3Cc4c(cc(CN5C6CCCC5CC6)cc4C(F)(F)F)C3=O)c2)COC1 :: >=0.201
CCNc1cc([C@H](C)Cc2nncn2C)cc(N2Cc3c(cccc3C(F)(F)F)C2=O)n1 :: >=0.201
C[C@H](Cc1nocc1C(F)(F)F)c1cccc(N2Cc3c(cc(C(=O)N4CC[C@H](F)C4)cc3C(F)(F)F)C2=O)c1 :: <=0.05
CC(c1cc2c(c(C3CC3)n1)CN(c1cccc(C3(Cc4nncn4C)COC3)c1)C2=O)N1CC2(CC2)C1 (configuration not stated) :: <=0.05
CN1CC2CC1CN2c1cc2c(c(C(F)(F)F)c1)CN(c1cccc([C@@](C)(F)C(F)(F)c3nncn3C)c1)C2=O (single isomer, unassigned; 562) :: >=0.201

// switching to the query molecule
Kindly indicate its recorded fold change (FC). Item: C[C@H]1CN(C)CCN1c1cc2c(c(C(F)(F)F)c1)CN(c1cccc(C3(Cc4nncn4C)COC3)c1)C2=O
>=0.201
